# credit: patent EP4585616A1

- System under test: T1, ROR1 extracellular segment sequence (including transmembrane) on CHO cells (human, UniProt Q01973 30-472)
- T1 construct: Cloned into pCDNA3.1 and transfected into CHO cells; also called CHO-ROR1 (extracellular segment); CHO-ROR1
- T1 sequence (Q01973 30-472 limits assumed): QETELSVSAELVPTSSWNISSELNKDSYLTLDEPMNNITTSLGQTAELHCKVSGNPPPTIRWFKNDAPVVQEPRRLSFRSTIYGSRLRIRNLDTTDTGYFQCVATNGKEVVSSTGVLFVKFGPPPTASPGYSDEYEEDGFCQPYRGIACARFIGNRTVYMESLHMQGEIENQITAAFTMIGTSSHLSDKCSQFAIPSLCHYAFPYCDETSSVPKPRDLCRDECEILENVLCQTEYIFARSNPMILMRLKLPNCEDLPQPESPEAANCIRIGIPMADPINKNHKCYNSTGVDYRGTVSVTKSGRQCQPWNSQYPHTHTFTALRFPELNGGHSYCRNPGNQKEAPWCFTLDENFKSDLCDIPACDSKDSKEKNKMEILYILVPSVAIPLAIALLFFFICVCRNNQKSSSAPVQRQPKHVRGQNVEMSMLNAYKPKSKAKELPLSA
- Assay explanation: FACS, CHO-ROR1 (extracellular segment) cells
Measurement label: pEC50
Value format note: pEC50 is -log10 of concentration (mol/L); just state the number.

Enquiry: Quick one: pEC50 for mAb009c (antibody, V domains shown, Human-mouse chimeric) VH: EVQLQQSGPELVKPGASLKLSCKASGYTFPDYNIHWVKQSHGKSLEWIGYINPNNGNTNYNQKFEGKATLTVSKSSSTAYMELRSLTSDDSAVYSCARRGYGSSYAMDFWGQGTSVTVSS VL: DVLMTQTPLSLPVSLGNQASISCRSSHIIVHTNGNTYLEWYLQKPGQSPKLLIYKVSNRFSGVPDRFSGSGSGTDFTLKISRVEAEDLGVYYCFQGSRVPYTFGGGTKLEIK ?
Return: 9.10
